// IC50 lookup, one value per entry
Biological target: human chemokine receptor CXCR7 (Homo sapiens (Human), UniProt P25106)
Sequence (P25106 whole entry): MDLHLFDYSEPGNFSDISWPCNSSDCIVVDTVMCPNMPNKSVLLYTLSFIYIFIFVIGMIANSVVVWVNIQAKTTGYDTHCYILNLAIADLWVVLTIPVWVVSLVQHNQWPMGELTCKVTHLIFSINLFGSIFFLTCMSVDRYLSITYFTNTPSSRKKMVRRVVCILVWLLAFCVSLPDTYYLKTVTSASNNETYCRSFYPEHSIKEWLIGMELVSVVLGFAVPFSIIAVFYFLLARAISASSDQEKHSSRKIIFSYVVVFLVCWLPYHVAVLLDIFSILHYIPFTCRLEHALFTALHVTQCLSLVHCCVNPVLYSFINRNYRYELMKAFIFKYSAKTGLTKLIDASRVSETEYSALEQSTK
Test: Tango CXCR7-bla U2OS beta-arrestin recruitment assay (beta-lactamase reporter, FRET), antagonism of CXCL12/SDF1-α
Assay type: cell-based
Conditions: antagonistic effect on CXCR7; Tango CXCR7-bla U2OS cells, CXCL12/SDF1-α at its EC80
metric: IC50 (nM)

>>> print(df.to_string())
                                   compound  observed_measurement
0  CC(C)(NC(=O)[C@H]1CN(C2CCC2)CC[C@@H]1NC(=O)c1cc(-c2ccc(F)cc2F)on1)c1ncccn1                    11
1  O=C(N[C@H]1CCN(CC2CC2)C[C@@H]1C(=O)NC1(c2ncccn2)CC1)c1cc(-c2ccc(F)cc2F)sn1                   201
2  COc1ccccc1CCNC(=O)[C@@H]1CN(C2CCCCC2)CC[C@H]1NC(=O)c1cc(-c2ccc(F)cc2F)on1 (racemic)                     1

###

Molecular target: human chemokine receptor CXCR7 (Homo sapiens (Human), UniProt P25106)
Assay: Tango CXCR7-bla U2OS beta-arrestin recruitment assay (beta-lactamase reporter, FRET), antagonism of CXCL12/SDF1-α;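 further: compounds preincubated 15 min before CXCL12 addition, then 22 h at 37 °C, FRET emission ratio read with CCF4-AM substrate after 2 h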
Type: cell-based
Conditions: antagonistic effect on CXCR7; Tango CXCR7-bla U2OS cells, CXCL12/SDF1-α at its EC80
One threshold, 20 nM, splits the recorded IC50 values: lower ones are Met, equal or higher ones are Not met.

compound	assigned.class
Cc1cccc([C@@H](C)NC(=O)[C@@H]2CN(C3CCCCC3)CC[C@H]2NC(=O)c2cc(-c3ccc(F)cc3F)on2)n1 (single isomer, unassigned) [Example 1.188a]	Met
C[C@@H]1CCC[C@H]1N1CC[C@@H](NC(=O)c2cc(-c3c(F)cc(F)cc3F)on2)[C@H](C(=O)N[C@H](C)c2ccccn2)C1 (relative stereo)	Met
C[C@@H](NC(=O)[C@@H]1CN(C2CCCCC2)CC[C@H]1NC(=O)c1cc(-c2ccc(F)cc2F)on1)c1cnccn1	Not met
O=C(N[C@H]1CCN(CC2CC2)C[C@@H]1C(=O)NC1(c2ncccn2)CC1)c1cc(-c2ccc(F)cc2F)ns1	Not met
C[C@@H](NC(=O)[C@@H]1CN(C2CCCCC2)CC[C@H]1NC(=O)c1cc(-c2c(F)cc(F)cc2F)on1)c1cnccn1 (single isomer, unassigned) [Example 1.129a]	Not met
O=C(N[C@H]1CCN(CC2CC2)C[C@@H]1C(=O)NC1(c2ncccn2)CC1)c1cn(-c2ccc(F)cc2F)nn1	Not met
C[C@@H](NC(=O)[C@@H]1CN(C2CCCCC2)CC[C@H]1NC(=O)c1cc(-c2ccc(F)cc2F)on1)C1CCC1 (relative stereo) [Example 1.091]	Not met
O=C(N[C@@H]1CCN(C2CCCC2)C[C@H]1C(=O)NC1(c2ccccn2)CC1)c1cc(-c2ccc(F)cc2F)no1 (racemic)	Not met
O=C(N[C@H]1CCN(C2CC3CC3C2)C[C@@H]1C(=O)NC1(c2ncccn2)CC1)c1cc(-c2ccc(F)cc2F)on1 (stereo partly drawn)	Met
CC(C)N(C)C(=O)[C@@H]1CN(C2CCCCC2)CC[C@H]1NC(=O)c1cc(-c2ccc(F)cc2F)on1 (racemic)	Not met
O=C(N[C@H]1CCN(CC2(F)CC2)C[C@@H]1C(=O)NC1(c2ncccn2)CC1)c1nnc(-c2ccc(F)cc2F)s1	Met
C[C@@H](NC(=O)[C@@H]1CN(C2CCCCC2)CC[C@H]1NC(=O)c1cc(-c2ccc(F)cc2F)on1)c1ncc(F)cn1 (relative stereo)	Not met
